system: mitochondrial respiration; test: Inhibition of mitochondrial respiration (rate of reduction of cytochrome c in isolated mitochondria), yeast; type: biochemical, Saccharomyces cerevisiae; settings: DMSO control
measured.quantity: % inhibition of respiration at 1.8 × 10^-5 mol/l test substance, Saccharomyces cerevisiae (%)
Write the answer as a number in %, unit excluded.

>>> df
                                   molecule  units_label  measurement
0  COC(=O)/C=C(/OC)c1ccccc1/C=C/c1ccc(Oc2ccccc2)cc1 [Compound 1a.273]            %           95
1  COC(=O)/C=C(/OC)c1ccccc1/C=C\c1ccsc1 [Compound 1a.297]            %           70

For this molecule ( COC(=O)/C=C(/OC)c1ccccc1/C=C/c1csc(-c2ccc(C)cc2)n1 [Compound 1a.312] ), measured % inhibition of respiration at 1.8 × 10^-5 mol/l test substance, Saccharomyces cerevisiae is 99

For this molecule ( CON=C(C)c1cc(C)c(OCc2ccccc2/C(=C\C(=O)OC)OC)cc1C [Compound 1a.61] ), measured % inhibition of respiration at 1.8 × 10^-5 mol/l test substance, Saccharomyces cerevisiae is 98

For this molecule ( CON=C(C)c1ccc(OCc2ccccc2/C(=C\C(=O)SC)OC)c(C)c1 [Compound 1a.86] ), measured % inhibition of respiration at 1.8 × 10^-5 mol/l test substance, Saccharomyces cerevisiae is 97

For this molecule ( COC(=O)/C=C(/OC)c1ccccc1/C=C\c1cccc(Oc2ccccc2)c1 [Compound 1a.272] ), measured % inhibition of respiration at 1.8 × 10^-5 mol/l test substance, Saccharomyces cerevisiae is 51

For this molecule ( COC(=O)/C=C(/OC)c1ccccc1/C=C/c1ccn(-c2ccc(Cl)cc2)c1 [Compound 1a.304] ), measured % inhibition of respiration at 1.8 × 10^-5 mol/l test substance, Saccharomyces cerevisiae is 97

For this molecule ( COC(=O)/C=C(/OC)c1ccccc1/C=C/c1ccoc1 [Compound 1a.292] ), measured % inhibition of respiration at 1.8 × 10^-5 mol/l test substance, Saccharomyces cerevisiae is 87

====

test system: mitochondrial respiration; assay: Inhibition of mitochondrial respiration (rate of reduction of cytochrome c in isolated mitochondria), yeast; format: biochemical, Saccharomyces cerevisiae; details: DMSO control
Readings of % inhibition of respiration at 1.8 × 10^-5 mol/l test substance, Saccharomyces cerevisiae for the listed compounds
Write the answer as a number in %, unit excluded.

>>> print(df.to_string())
                                   compound  measurement
0  COC(=O)/C=C(/OC)c1ccccc1/C=C/c1ccc(C(F)(F)F)cc1           97
1      COC(=O)/C=C(\OC)c1ccccc1Oc1cccc(C)c1           22
2  COC(=O)/C=C(/OC)c1ccccc1/C=C/c1ccccc1C(F)(F)F           99
3  COC(=O)/C=C(/OC)c1ccccc1/C=C/C1CCOC(C2CCCOC2)C1 (stereo not drawn)           20
4  CO/N=C(\C)c1ccc(OCc2ccccc2/C(=C\C(=O)OC)OC)c(C)c1           98

The reported mitochondrial respiration % inhibition of respiration at 1.8 × 10^-5 mol/l test substance, Saccharomyces cerevisiae of CCCOC(=O)/C=C(/OC)c1ccccc1COc1ccc(C(C)=NOC)cc1C is 70

The reported mitochondrial respiration % inhibition of respiration at 1.8 × 10^-5 mol/l test substance, Saccharomyces cerevisiae of COC(=O)/C=C(/OC)c1ccccc1/C=C\c1ccc(C)cc1 is 54

The reported mitochondrial respiration % inhibition of respiration at 1.8 × 10^-5 mol/l test substance, Saccharomyces cerevisiae of COC(=O)/C=C(/OC)c1ccccc1/C=C\c1cnn(-c2ccc(Cl)cc2)c1 is 19

The reported mitochondrial respiration % inhibition of respiration at 1.8 × 10^-5 mol/l test substance, Saccharomyces cerevisiae of COC(=O)/C=C(/OC)c1ccccc1/C=C/c1ccco1 is 98
